Origin of the recorded values: patent US7504410B2

EXPERIMENTAL_DETAILS: PDK-1-dependent activation and subsequent enzymatic activity of AKT2 (SPA)
Assay type: biochemical, human
EXPERIMENTAL_PARAMETERS: AKT2 activated by PDK-1 in the assay; read-out: Akt-2 inhibition IC50
MEASURE: pIC50
Answers are plain numbers, as −log10 of the molar value.

RECORD_SMILES	RESULT_VALUE
CC(C)(C(N)=O)C(=O)NCCCNc1nc(Nc2cccc(NC(=O)[C@H](N)Cc3ccccc3)c2)ncc1Br	7.62
CN1CC(=O)N(c2cccc(Nc3ncc(Br)c(NCCCNC(=O)[C@@H]4CSC(=O)N4)n3)c2)C1=O	8.40

# per-item lookup of pIC50; items listed below
1. CC(C)(C(N)=O)C(=O)NCCCNc1nc(Nc2cccc(N3C(=O)CNC3=O)c2)ncc1Br
2. NC(=O)C1(C(=O)NCCCNc2nc(Nc3cccc(NC(=O)[C@@H]4CCCN4)c3)ncc2Br)CC1
3. CC(C)(C(N)=O)C(=O)NCCCNc1nc(Nc2cccc(NC(=O)[C@@H](N)c3ccccc3)c2)ncc1Br
4. O=C(Nc1cccc(Nc2ncc(Br)c(NCCc3c[nH]cn3)n2)c1)N1CCCC1

*A*
7.72
7.64
7.36
8.22

###

The next entries give measured IC50 for VEGFR II (KDR) (Homo sapiens, UniProt P35968).
One number for each entry, in µM.

Solved entries (count: 5):
RECORD_SMILES	MEASURE	RESULT_VALUE
CN1CC(=O)N(c2cccc(Nc3ncc(Br)c(NCCc4c[nH]cn4)n3)c2)C1=O	IC50	0.032
CCN(CCN1CCCCC1)C(=O)Nc1cccc(Nc2ncc(Br)c(NCCc3c[nH]cn3)n2)c1	IC50	0.33
O=C1N[C@H](C(=O)NCCCNc2nc(Nc3cccc(N4C(=O)CNC4=O)c3)ncc2Br)CS1	IC50	0.0026
C[C@@H](N)C(=O)NCCCNc1nc(Nc2cccc(NC(=O)N3CCCC3)c2)ncc1Br	IC50	1.4
CC(C)CC(=O)NCCCNc1nc(Nc2cccc(NC(=O)N3CCCC3)c2)ncc1Br	IC50	0.4

*Q* Reported IC50 for VEGFR II (KDR) (Homo sapiens, UniProt P35968), given CCOC(=O)NCCCNc1nc(Nc2cccc(NC(=O)N3CCCC3)c2)ncc1Br ?
*A* 0.74
